The reported measurements were obtained from patent US9850283B2.

# target_under_test: Human PD-L1/PD-1 (Homo sapiens, UniProt Q9NZQ7)
# Construct: made in house; host or cells: HEK293T
# Sequence (Q9NZQ7 with tags, fused parts or gaps): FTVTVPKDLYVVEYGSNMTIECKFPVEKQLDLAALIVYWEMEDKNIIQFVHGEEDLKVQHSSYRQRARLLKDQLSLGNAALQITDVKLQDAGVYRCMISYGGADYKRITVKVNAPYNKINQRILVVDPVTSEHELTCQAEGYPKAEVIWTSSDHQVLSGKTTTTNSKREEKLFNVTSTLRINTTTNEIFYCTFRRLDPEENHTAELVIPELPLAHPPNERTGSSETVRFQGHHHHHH
# protocol_description: HTRF PD-1-Ig/PD-L1-His binding assay (human PD-L1)
# protocol_conditions: cluster symbol; read-out: HTRF IC50 cluster
pIC50: −log10 of the molar value. Positions of bridges follow the written chain, without caps; N, C: chain ends. Non-standard residues stand in square brackets, D forms with d. Residues, ends and D or L forms follow the SMILES beside them. NMeF = CN[C@@H](Cc1ccccc1)C(=O)O; Chg = N[C@H](C(=O)O)C1CCCCC1; NMeNle = CCCC[C@H](NC)C(=O)O; Sar = CNCC(=O)O

>  <molecule>
CCCC[C@H]1C(=O)N(C)CC(=O)N[C@@H](CC(=O)O)C(=O)N[C@@H](C2CCCCC2)C(=O)N(C)[C@@H](Cc2ccccc2)C(=O)N[C@@H](Cc2ccc(O)cc2)C(=O)N(C)CC(=O)N[C@@H](Cc2c[nH]c3ccccc23)C(=O)N[C@@H](Cc2ccc(O)cc2)C(=O)N[C@@H](CC(C)C)C(=O)N[C@H](C(=O)NCC(N)=O)CSCC(=O)N[C@@H](Cc2ccccc2)C(=O)N(C)[C@@H](Cc2ccccc2)C(=O)N1C [Example 3158] ({CH2CO}-F[NMeF][NMeNle][Sar]D[Chg][NMeF]Y[Sar]WYLCG-NH2; thioether N-13)

>  <pIC50>
< 7.52

$$$$
